- Tested on: cotton
- ASSAY NAME: Phytotoxicity Test, cotton
- Type: in vivo
- Set-up: key: A rating of 1 indicates no perceptible injury; ratings of 2, 3 and 4 indicate intermediate degrees of injury; ratings of 2, 3 and 4 indicate intermediate degrees of injury; ratings of 2, 3 and 4 indicate intermediate degrees of injury; 5 indicates the plant was dead
- APPLIED CONDITIONS: ten days
RECORDED METRIC: Crop Phytotoxicity, Injury Rating at 2500 ppm, COT.
Give bare numbers.

Please review the entries below; each comes with its answer.
INSERT INTO measurements (structure_smiles_string, measured_on, number) VALUES
  ('CC(=NOC(=O)N(C)SN1CCOCC1)SC(C)C', 'cotton', 1),
  ('CN(SN1CCOCC1)C(=O)ON=C1CSCCS1', 'cotton', 1),
  ('CC(=NOC(=O)N(C)SN1CCOCC1)SCCC#N', 'cotton', 1),
  ('CCSC(C)=NOC(=O)N(C)SN1CCOCC1', 'cotton', 1);

Next compound, please.
Lookup: Need Crop Phytotoxicity, Injury Rating at 2500 ppm, COT. of `CCN(CC)SN(C)C(=O)ON=C(C)SC` , thanks.
Found: 2

---

- Tested on: two-spotted mite (Tetranychus urticae Koch)
- ASSAY NAME: whole plant or invertebrate
- APPLIED CONDITIONS: foliar, 144 h, read-out: Insect Toxicity, % Kill at 250 ppm, TSM
Answer each item with its documented mortality at 250 ppm.
Give bare numbers, in %.

Consider the worked cases shown below.
INSERT INTO measurements (compound, measured_on, number) VALUES
  ('CSC(C)=NOC(=O)N(C)SN(C)C [Compound 11]', 'two-spotted mite (Tetranychus urticae Koch)', 50),
  ('CC(=NOC(=O)N(C)SN1CCOCC1)SC(C)C [Compound 7]', 'two-spotted mite (Tetranychus urticae Koch)', 100),
  ('CSC(C)(C)C=NOC(=O)N(C)SN1CCOCC1 [Compound 6]', 'two-spotted mite (Tetranychus urticae Koch)', 100),
  ('CCSC(C)=NOC(=O)N(C)SN1CCOCC1 [Compound 4]', 'two-spotted mite (Tetranychus urticae Koch)', 100),
  ('CN(SN1CCOCC1)C(=O)ON=CC(C)(C)C#N [Compound 10]', 'two-spotted mite (Tetranychus urticae Koch)', 100);

Switching to the query record.
Lookup: Tell me the measured mortality at 250 ppm of CCN(CC)SN(C)C(=O)ON=C(C)SC [Compound 17] , please.
Found: 80

---

- Tested on: two-spotted mite (Tetranychus urticae Koch)
- ASSAY NAME: whole plant or invertebrate
- APPLIED CONDITIONS: foliar, 144 h, read-out: Insect Toxicity, % Kill at 250 ppm, TSM
RECORDED METRIC: mortality at 250 ppm (%)
Answers are plain numbers, in %.

A selection of reference data follows.
INSERT INTO results (compound, recorded_metric, result_unit, number) VALUES
  ('CN(C)SN(C)C(=O)ON=C1CSCCS1', 'mortality at 250 ppm', '%', 100),
  ('CCCCN(CCCC)SN(C)C(=O)ON=C(C)SC', 'mortality at 250 ppm', '%', 50),
  ('CN(SN1CCOCC1)C(=O)ON=C1CSCCS1', 'mortality at 250 ppm', '%', 100),
  ('CC(=NOC(=O)N(C)SN(C)C)SC(C)C', 'mortality at 250 ppm', '%', 100),
  ('CSC(C)=NOC(=O)N(C)SN1CCCCC1', 'mortality at 250 ppm', '%', 100),
  ('CC1OCSC1=NOC(=O)N(C)SN1CCOCC1 (stereo not drawn)', 'mortality at 250 ppm', '%', 100);

For each of the compounds below, note its mortality at 250 ppm.
1. CN(SN1CCOCC1)C(=O)ON=C1SCC(=O)NC1(C)C
2. CSC(C)=NOC(=O)N(SN1CCOCC1)C(C)C
3. CC(=NOC(=O)N(C)SN1CCOCC1)SCCC#N

Found:
1: 100; 2: 0; 3: 100

---

- Test system: green beans
- ASSAY NAME: Phytotoxicity Test, green beans
- Format: in vivo
- Design: key: A rating of 1 indicates no perceptible injury; ratings of 2, 3 and 4 indicate intermediate degrees of injury; ratings of 2, 3 and 4 indicate intermediate degrees of injury; ratings of 2, 3 and 4 indicate intermediate degrees of injury; 5 indicates the plant was dead
- APPLIED CONDITIONS: ten days
Would you mind telling me the reported Crop Phytotoxicity, Injury Rating at 2500 ppm, GB of each entry?

Quick batch: Crop Phytotoxicity, Injury Rating at 2500 ppm, GB for everything below.
1. CSC(C)=NOC(=O)N(SN1CCOCC1)C(C)C [Compound 14]
2. CC(=NOC(=O)N(C)SN1CCOCC1)SC(C)C [Compound 7]
3. CC1OCSC1=NOC(=O)N(C)SN1CCOCC1 (centres unmarked) [Compound 9]
4. CSC(C)=NOC(=O)N(C)SN1CCCCC1 [Compound 12]
5. CSC(C)=NOC(=O)N(C)SN(C)C [Compound 11]

Found:
1: 1; 2: 2; 3: 1; 4: 1; 5: 1

---

For each entry below, report its mortality at 250 ppm value.
- System: house flies (Musca domestica, L.)
- ASSAY NAME: whole plant or invertebrate
- APPLIED CONDITIONS: po, 24 h, read-out: Insect Toxicity, % Kill at 250 ppm, HF
Answers are plain numbers, in %.

INSERT INTO results (compound, measured_on, recorded_metric, number) VALUES
  ('CC1OCSC1=NOC(=O)N(C)SN1CCOCC1 (stereo not shown) [Compound 9]', 'house flies (Musca domestica, L.)', 'mortality at 250 ppm', 100),
  ('CSC(C)=NOC(=O)N(C)SN1CCCCC1 [Compound 12]', 'house flies (Musca domestica, L.)', 'mortality at 250 ppm', 100),
  ('CC(=NOC(=O)N(C)SN1CCOCC1)SC(C)C [Compound 7]', 'house flies (Musca domestica, L.)', 'mortality at 250 ppm', 100);

Lookup: Consider the compound shown here: CCSC(C)=NOC(=O)N(C)SN1CCOCC1 [Compound 4] What is its recorded mortality at 250 ppm?
Found: 100

---

- Tested on: cotton
- ASSAY NAME: Phytotoxicity Test, cotton
- Assay type: in vivo
- Set-up: key: A rating of 1 indicates no perceptible injury; ratings of 2, 3 and 4 indicate intermediate degrees of injury; ratings of 2, 3 and 4 indicate intermediate degrees of injury; ratings of 2, 3 and 4 indicate intermediate degrees of injury; 5 indicates the plant was dead
- APPLIED CONDITIONS: ten days
RECORDED METRIC: Crop Phytotoxicity, Injury Rating at 2500 ppm, COT.
Answers are plain numbers.

INSERT INTO results (compound, number) VALUES
  ('CC(=NOC(=O)N(C)SN(C)C)SC(C)C', 2),
  ('CN(SN1CCOCC1)C(=O)ON=CC(C)(C)C#N', 3),
  ('CSC(C)=NOC(=O)N(SN1CCOCC1)C(C)C', 1),
  ('CSC(C)=NOC(=O)N(C)SN1CCCCC1', 1),
  ('CCCCN(CCCC)SN(C)C(=O)ON=C(C)SC', 1),
  ('CSC(C)=NOC(=O)N(C)SN1CCOCC1', 1),
  ('CC1OCSC1=NOC(=O)N(C)SN1CCOCC1 (centres unmarked)', 1),
  ('CN(SN1CCOCC1)C(=O)ON=C1SCC(=O)NC1(C)C', 1),
  ('CSC(C)=NOC(=O)N(C)SN(C)C', 1),
  ('CN(C)SN(C)C(=O)ON=C1CSCCS1', 2);

Lookup: // fetch cotton Crop Phytotoxicity, Injury Rating at 2500 ppm, COT. for `CSC(C)(C)C=NOC(=O)N(C)SN1CCOCC1`
Found: 1

---

Please go through the items and note down their Crop Phytotoxicity, Injury Rating at 2500 ppm, TOM.
- Tested on: tomato
- ASSAY NAME: Phytotoxicity Test, tomato
- Format: in vivo
- Set-up: key: A rating of 1 indicates no perceptible injury; ratings of 2, 3 and 4 indicate intermediate degrees of injury; ratings of 2, 3 and 4 indicate intermediate degrees of injury; ratings of 2, 3 and 4 indicate intermediate degrees of injury; 5 indicates the plant was dead
- APPLIED CONDITIONS: ten days

INSERT INTO results (compound, result) VALUES
  ('CCCCN(CCCC)SN(C)C(=O)ON=C(C)SC [Compound 28]', 1),
  ('CC(=NOC(=O)N(C)SN(C)C)SC(C)C [Compound 24]', 2),
  ('CC1OCSC1=NOC(=O)N(C)SN1CCOCC1 (stereo not shown) [Compound 9]', 2),
  ('CCN(CC)SN(C)C(=O)ON=C(C)SC [Compound 17]', 1),
  ('CC(=NOC(=O)N(C)SN1CCOCC1)SC(C)C [Compound 7]', 1);

For each entry beneath this line, provide reported Crop Phytotoxicity, Injury Rating at 2500 ppm, TOM.
1. CN(SN1CCOCC1)C(=O)ON=C1CSCCS1 [Compound 5]
2. CCSC(C)=NOC(=O)N(C)SN1CCOCC1 [Compound 4]

Found:
1. 1
2. 1

Return reported Crop Phytotoxicity, Injury Rating at 2500 ppm, TOM values for all items listed beneath this line.
1. CN(SN1CCOCC1)C(=O)ON=CC(C)(C)C#N [Compound 10]
2. CN(C)SN(C)C(=O)ON=C1CSCCS1 [Compound 23]
3. CN(SN1CCOCC1)C(=O)ON=C1SCC(=O)NC1(C)C [Compound 16]
4. CSC(C)=NOC(=O)N(C)SN(C)C [Compound 11]
5. CSC(C)(C)C=NOC(=O)N(C)SN1CCOCC1 [Compound 6]
6. CSC(C)=NOC(=O)N(C)SN1CCOCC1 [Compound 3]
7. CC(=NOC(=O)N(C)SN1CCOCC1)SCCC#N [Compound 8]

Found:
1. 1
2. 1
3. 1
4. 2
5. 1
6. 1
7. 1

Provide Crop Phytotoxicity, Injury Rating at 2500 ppm, TOM for all items below, preserving their order.
1. CSC(C)=NOC(=O)N(C)SN1CCCCC1 [Compound 12]
2. CSC(C)=NOC(=O)N(SN1CCOCC1)C(C)C [Compound 14]

Found:
1: 1; 2: 1

Source: patent US4315928A
